Below, each entry is listed with its recorded composite z-score.
- System: Human papillomavirus type 1a protein E7 (residues 44-93)
- PROTOCOL_TEXT: HPV1a E7 fragment binders on microarrays, primary screen, biochemical, small-molecule microarray, residues 44-93, 635 nm fluorescence (AID 1108);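 further: E7 fragment applied at 1 µg/mL in TBST for 1 h at 4 C; score combines spot fluorescence with its signal to noise ratio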
- CONDITION_DESCRIPTION: small-molecule microarray binding, fluorescence 635 nm; higher = more signal

CCCC[C@H]1OB(O)C[C@H]2C1=C(C)C[C@H]1C(=O)N(Cc3ccccc3)C(=O)[C@H]12: 0.152
COC(=O)[C@@]1(Cc2ccccc2)[C@H]2c3cc(C(=O)N4CCCC4)n(Cc4ccc(C)o4)c3C[C@H]2CN1C(=O)c1ccccc1: 0.114
COCCOC(=O)N1C(=O)[C@@]2(c3ccccc31)[C@H](C(=O)Nc1nc3ccccc3s1)[C@H]1C(=O)O[C@H](c3ccccc3)[C@H](c3ccccc3)N1[C@@H]2c1ccc(OCCO)cc1: 1.37

Q: GET /values?readout=composite z-score&item= CC(C)c1ccc(NN2C(C(O)c3ccc(N(C)C)cc3)C=CC3C(=O)N(c4ccccc4)C(=O)C32)cc1 (centres undefined)
A: 1.42

Q: GET /values?readout=composite z-score&item= [N-]=[N+]=Nc1ccccc1[C@H]1OC(c2ccc(OCCCO)cc2)=N[C@@]1(CCS(=O)(=O)c1ccccc1)C(=O)O
A: 0.447

Q: GET /values?readout=composite z-score&item= CCCCCN1CC=CC23O[C@@H]4/C=C\CCCOC(=O)C4[C@H]2C(=O)N(CCCCCCO)[C@@H]3C1=O (some centres undefined)
A: -0.0348

Q: GET /values?readout=composite z-score&item= O=C1N(CCS(=O)(=O)c2ccccc2)Cc2ccccc2C[C@]12N=C(c1ccc(OCCCO)cc1)O[C@@H]2c1ccccc1
A: -0.183

Q: GET /values?readout=composite z-score&item= COCCOC(=O)N1C(=O)[C@@]2(c3cc(C#CCNC(N)=O)ccc31)[C@H](c1ccc(O)cc1)N1[C@H](c3ccccc3)[C@H](c3ccccc3)OC(=O)[C@H]1[C@@H]2C(=O)Nc1nc2ccccc2s1
A: 0.793

Q: GET /values?readout=composite z-score&item= COc1cccc(C(=O)O[C@H]2CC[C@]3(C)C4=C(CCC3C2(C)C)[C@]2(C)CC[C@H]([C@H](C)CCCC(C)C)[C@@]2(C)CC4)c1 (some centres undefined)
A: -0.212

Q: GET /values?readout=composite z-score&item= CCCCC=C[C@@H](NC(=O)c1cccs1)c1ccccc1
A: 0.861

Q: GET /values?readout=composite z-score&item= Cc1cc(C)c(C(O)C2C=CC3C(=O)N(c4ccccc4)C(=O)C3N2Nc2ccc(C#N)cc2)c(C)c1 (centres undefined)
A: 0.486

---

Below, each entry is listed with its recorded composite z-score.
- SYSTEM_UNDER_TEST: Calmodulin-1 (Homo sapiens)
- PROTOCOL_TEXT: calcium-bound CALM1 binders on microarrays, profiling panel, artefact control for SMM control-protein annotation, biochemical, small-molecule microarray, Cy5-labelled CALM1, plus calcium (AID 1112);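 further: score merges spot fluorescence with signal to noise from triplicate slides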
- CONDITION_DESCRIPTION: Cy5-CALM1 binding fluorescence, higher = more signal
// no unit, no text: just the number

Here's what some known entries look like.
[N-]=[N+]=NCc1ccccc1C[C@]1(C(=O)NCC(O)CO)N=C(c2ccc(OCCCO)cc2)O[C@H]1c1ccccc1N=[N+]=[N-] (stereo partly drawn): 1.04
CCOC(=O)C[C@H]1[C@H](OC(=O)Cc2ccc3c(c2)OCO3)[C@@H](NC(=O)c2ccc(-c3ccccc3)cc2)c2cc(OCCCO)ccc2N1C(=O)c1ccccc1: -0.0305
C=C(C(=O)CC[C@H](OC(C)=O)c1ccc(OCCO)cc1)C(C)C: -1.39

Q: What reported composite z-score corresponds to [N-]=[N+]=NCc1ccccc1C[C@@]1(C(=O)N2CCOCC2)N=C(c2ccc(OCCCO)cc2)O[C@@H]1c1ccccc1CN=[N+]=[N-] on Calmodulin-1 (Homo sapiens)?
A: 1.06

Q: What reported composite z-score corresponds to CCCC[C@@H]1C[C@H]1[C@@H](NC(=O)c1ccc(-c2ccccc2)cc1)c1ccc(-c2ccccc2)cc1 on Calmodulin-1 (Homo sapiens)?
A: -0.836

Q: What reported composite z-score corresponds to O=C1O[C@@H](c2ccccc2)[C@@H](c2ccccc2)N2[C@@H](c3ccc(OCCO)cc3)[C@]3(C(=O)Nc4ccccc43)[C@@H](C(=O)Nc3nc4ccccc4s3)[C@H]12 on Calmodulin-1 (Homo sapiens)?
A: 0.241

Q: What reported composite z-score corresponds to O=C1O[C@H](c2ccccc2)[C@H](c2ccccc2)N2[C@H]1[C@@H](C(=O)O)[C@]1(C(=O)Nc3ccc(C#CC4(O)CCCCCC4)cc31)[C@H]2c1ccc(OCCO)cc1 on Calmodulin-1 (Homo sapiens)?
A: 0.475

Q: What reported composite z-score corresponds to CC(C)NC(=O)[C@@]1(Cc2ccccc2I)c2ccccc2C(=O)N(Cc2ccccc2)[C@H]1c1ccc(CO)cc1 on Calmodulin-1 (Homo sapiens)?
A: -0.726

Q: What reported composite z-score corresponds to O=C1O[C@@H](c2ccccc2)[C@@H](c2ccccc2)N2[C@@H](c3ccccc3OCCO)[C@]3(C(=O)Nc4ccc(C#CC5(O)CCCCCC5)cc43)[C@@H](C(=O)Nc3nc4ccccc4s3)[C@H]12 on Calmodulin-1 (Homo sapiens)?
A: 0.226

Q: What reported composite z-score corresponds to CC(C)c1ccc(NN2C(C(O)c3ccc(N(C)C)cc3)C=CC3C(=O)N(c4ccccc4)C(=O)C32)cc1 (stereo not drawn) on Calmodulin-1 (Homo sapiens)?
A: 0.176

Q: What reported composite z-score corresponds to CC(=O)C1=CCC(c2ccccc2)N(S(=O)(=O)c2ccc(C)cc2)C1 (stereo not drawn) on Calmodulin-1 (Homo sapiens)?
A: -0.163

Q: What reported composite z-score corresponds to Cc1cc(C)c(C(O)C2C=CC3C(=O)N(C)C(=O)C3N2Nc2ccccc2)c(C)c1 (stereo not drawn) on Calmodulin-1 (Homo sapiens)?
A: -0.0299

Q: What reported composite z-score corresponds to O=C1N(CCS(=O)(=O)c2ccccc2)c2ccccc2C[C@@]12COC(c1ccc(OCCCO)cc1)=N2 on Calmodulin-1 (Homo sapiens)?
A: 0.445

Q: What reported composite z-score corresponds to COc1cc(C(O)C2C=CC3C(=O)N(c4ccccc4)C(=O)C3N2Nc2ccc(C#N)cc2)cc(OC)c1OC (stereo not drawn) on Calmodulin-1 (Homo sapiens)?
A: 1.19

---

Below, each entry is listed with its recorded composite z-score.
- SYSTEM_UNDER_TEST: Fibroblast growth factor 2 (Homo sapiens)
- PROTOCOL_TEXT: FGF2 binders on small-molecule microarrays, primary screen, biochemical, small-molecule microarray, 635/667 nm fluorescence (AID 1133)
- CONDITION_DESCRIPTION: small-molecule microarray binding, FGF2, fluorescence 635/667; higher = more signal

Here's what some known entries look like.
CC(C)C(O)C1C=CC2C(=O)N(c3ccccc3)C(=O)C2N1Nc1ccc(C#N)cc1 (stereo not given): 0.598
COC(=O)c1ccc(C23CC2(C(NP(=O)(c2ccccc2)c2ccccc2)c2ccccc2)C3)cc1 (stereo not given): -0.575
O=C(O)[C@H]1C[C@H]2C(=O)NCC(=O)N2[C@H]1c1ccc(O)cc1: 1.05
C=C[C@H](COC(C)=O)N(Cc1ccc(OC(C)=O)c(OC)c1)S(=O)(=O)c1ccc(Br)cc1: 1.75
O=C1N(CCS(=O)(=O)c2ccccc2)Cc2ccccc2C[C@]12N=C(c1ccc(OCCCO)cc1)O[C@@H]2c1ccccc1: 1.91
COc1ccc(C#Cc2ccc3c(c2)[C@]2(C(=O)N3)[C@H](C(=O)NC[C@H](O)c3ccccc3)[C@H]3C(=O)O[C@H](c4ccccc4)[C@H](c4ccccc4)N3[C@@H]2c2ccc(OCCO)cc2)cc1: 1.19
COC(=O)C(CC#Cc1ccc2c(c1)[C@]1(C(=O)N2)[C@H](C(=O)NC[C@H](O)c2ccccc2)[C@H]2C(=O)O[C@H](c3ccccc3)[C@H](c3ccccc3)N2[C@@H]1c1ccc(OCCO)cc1)C(=O)OC: 0.937
CCCNC(=O)[C@@H]1c2ccccc2C(=O)N(Cc2ccccc2)[C@H]1c1ccc(CO)cc1: -0.193

Q: GET /values?readout=composite z-score&item= C#CCN(C(/C=C/c1ccccc1)CO)C(C(=O)O)c1ccccc1 (stereo not given)
A: -0.354

Q: GET /values?readout=composite z-score&item= C=CCOC(=O)[C@@H]1[C@H]2C(=O)O[C@H](c3ccccc3)[C@H](c3ccccc3)N2[C@H](c2ccc(OCCOC(=O)[C@@H]3C[C@@H]4C(=O)NCC(=O)N4[C@@H]3c3cccc(OCCO)c3)cc2)[C@@]12C(=O)Nc1ccc(I)cc12
A: 1.31

Q: GET /values?readout=composite z-score&item= COC(=O)[C@@]1(Cc2ccccc2)[C@H]2c3cc(C(=O)N4CCCC4)n(C)c3C[C@H]2CN1C(=O)c1ccccc1
A: -0.915

Q: GET /values?readout=composite z-score&item= [N-]=[N+]=NCc1ccccc1[C@@H]1OC(c2ccc(OCCCO)cc2)=N[C@]1(Cc1ccccc1N=[N+]=[N-])C(=O)NCc1ccccc1
A: 0.578

Q: GET /values?readout=composite z-score&item= CCOC(=O)C1=CCC(C(C)(C)C)N(S(=O)(=O)c2ccc(C)cc2)C1 (stereo not given)
A: 1.39

Q: GET /values?readout=composite z-score&item= C=C(C(=O)CC[C@H](OC(C)=O)c1ccc(OCCO)cc1)C(C)C
A: 0.911

Q: GET /values?readout=composite z-score&item= COC(=O)[C@]1(Cc2ccccc2N=[N+]=[N-])N=C(c2ccc(OCCCO)cc2)O[C@@H]1c1ccccc1N=[N+]=[N-]
A: -0.0133
